- Test target: T1, FK13 (LL37-derived peptide) (Homo sapiens (synthetic, derived from …, UniProt P49913 150-162))
- T1 chain: FKRIVQRIKDFLR
- Assay procedure: ITC; 100 mM KCl; ITC: 10 mM potassium phosphate pH 7.0, 100 mM KCl, 25 C; 20 uM peptide in cell, 500 uM G4 DNA in syringe; one-site fit. NMR: same buffer, 10% D2O, NOESY at 15 C
- Experimental setup: G4, unimolecular
Attribute measured: pKd
Field pKd (float): negative decimal logarithm of the concentration in molar.

INPUT: Please report pKd for the following binder: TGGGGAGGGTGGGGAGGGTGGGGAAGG (structured_DNA) [Pu27 c-MYC quadruplex]
OUTPUT: 4.46
